System: 997726-040-R-J2-PDC tumor spheroids, viability;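 also: spheroids exposed to compounds for seven days before readout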
Assay: Anticancer human tumor 997726-040-R-J2-PDC patient-derived squamous cell lung carcinoma cell line growth inhibition [PI3K]
Conditions: second compound 1 µM; first compound 10 µM; active compounds read low; spheroids with HUVEC and MSC
Value type: viability, T/C (%)
Numbers only here, please. The scale is %.

Enquiry: # query: viability, T/C of entry CC(Cn1ccc(-c2ccc(C#N)c(Cl)c2)n1)NC(=O)c1cc(C(C)O)[nH]n1 (stereo not given) + CC(Nc1ccc2c(c1)OCCn1cc(N3C(=O)OCC3C(F)F)nc1-2)C(N)=O
Return: 24.5

Enquiry: # query: viability, T/C of entry CNC(=O)c1ccc(N2C(=S)N(c3ccc(C#N)c(C(F)(F)F)c3)C(=O)C2(C)C)cc1F + CC(Nc1ccc2c(c1)OCCn1cc(N3C(=O)OCC3C(F)F)nc1-2)C(N)=O
Return: 24.2

Enquiry: # query: viability, T/C of entry CNC(=O)c1ccc(N2C(=S)N(c3ccc(C#N)c(C(F)(F)F)c3)C(=O)C2(C)C)cc1F + CC(Nc1ncnc2nc[nH]c12)c1cc2cccc(Cl)c2c(=O)n1-c1ccccc1
Return: 86.9

Enquiry: # query: viability, T/C of entry Cn1nccc1Nc1nccc(-c2ccn(C(CO)c3ccc(Cl)c(F)c3)c(=O)c2)n1 (stereo not given) + Cc1nc(NC(=O)N2CCCC2C(N)=O)sc1-c1ccnc(C(C)(C)C(F)(F)F)c1
Return: 23.3

Enquiry: # query: viability, T/C of entry C=CC(=O)N1CCN(c2nc(=O)n(-c3c(C)ccnc3C(C)C)c3nc(-c4c(O)cccc4F)c(F)cc23)C(C)C1 (stereo not given) + CC(Nc1ccc2c(c1)OCCn1cc(N3C(=O)OCC3C(F)F)nc1-2)C(N)=O
Return: 27.2
